Heads up, these compounds all have IC50 values measured for PKMYT1 (Homo sapiens (Human)).

A selection of reference data follows.
Compound	IC50
Cc1ccc(O)c(C)c1-n1c(N)c(C(=O)N2CCn3c(nnc3C(F)(F)F)C2)c2cc(Cl)cnc21 [Example 27]	50 to 500 nM
Cc1ccc(O)c(C)c1-n1c(N)c(C(=O)N2CCc3ncsc3C2)c2cc(Cl)cnc21 [Example 9]	10 to 50 nM
Cc1nc2n(n1)CCN(C(=O)c1c(N)n(-c3c(C)ccc(O)c3C)c3ncc(Cl)cc13)C2 [Example 10]	10 to 50 nM
Cc1ccc(O)c(C)c1-n1c(N)c(C(=O)N2CCc3nn(C)cc3C2)c2nc(C)c(C)nc21 [Example 6]	10 to 50 nM
CC#Cc1nc2c(C(=O)N3CCn4nccc4C3)c(N)n(-c3c(C)ccc(O)c3C)c2nc1C [Example 40]	10 to 50 nM
Cc1ccc(O)c(C)c1-n1c(N)c(C(=O)N2CCn3nc(C(F)(F)F)nc3C2)c2cc(Cl)cnc21 [Example 12]	10 to 50 nM

Write down the reported IC50 of Cc1ccc(O)c(C)c1-n1c(N)c(C(=O)N2CCn3ncc(CO)c3C2)c2nc(C)c(C)nc21 [Example 16] , test system: PKMYT1 (Homo sapiens (Human)).
Sequence (Q99640 whole entry): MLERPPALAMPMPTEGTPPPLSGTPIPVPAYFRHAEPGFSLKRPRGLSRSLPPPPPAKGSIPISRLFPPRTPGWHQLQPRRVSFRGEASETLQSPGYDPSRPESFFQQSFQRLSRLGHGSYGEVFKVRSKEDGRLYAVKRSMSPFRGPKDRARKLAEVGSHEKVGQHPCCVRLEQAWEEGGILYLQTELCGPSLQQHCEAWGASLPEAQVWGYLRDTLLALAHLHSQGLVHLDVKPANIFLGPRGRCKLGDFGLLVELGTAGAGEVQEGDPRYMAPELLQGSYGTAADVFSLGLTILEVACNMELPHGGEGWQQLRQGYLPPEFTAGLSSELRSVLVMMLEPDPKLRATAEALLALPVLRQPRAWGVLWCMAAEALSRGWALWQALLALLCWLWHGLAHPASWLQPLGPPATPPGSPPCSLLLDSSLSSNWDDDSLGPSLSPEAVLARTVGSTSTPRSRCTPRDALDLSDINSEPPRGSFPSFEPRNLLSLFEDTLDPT
< 10 nM

Reported IC50 for PKMYT1 (Homo sapiens (Human)), given Cc1ccc(O)c(C)c1-n1c(N)c(C(=O)N2CCc3ncsc3C2)c2nc(C)c(C)nc21 [Example 5] ?
10 to 50 nM
